Where these numbers come from: patent US6410561B1

IC50, ORL-1 receptor (Homo sapiens), per-entry values.
quantity: IC50 (µM)

Solved cases below.
Cc1cc(N)c2cc(NC(=O)c3ccccc3COc3ccc(C(C)(C)C)cc3)ccc2n1.Cl [Example 29, hydrochloride] : 0.16
Cc1cc(N)c2cc(NC(=O)c3ccccc3COc3ccc(C(F)(F)F)cc3)ccc2n1.Cl [Example 18, hydrochloride] : 0.09
Cc1cc(N)c2cc(NC(=O)c3ccccc3COc3ccc(Cl)cc3)ccc2n1.Cl [Example 11, hydrochloride] : 0.06
Cc1ccc(OCc2ccccc2C(=O)Nc2ccc3nc(C)cc(N)c3c2)c(Cl)c1.Cl [Example 43, hydrochloride] : 0.11
Cc1ccc(OCc2ccccc2C(=O)Nc2ccc3nc(C)cc(N)c3c2)cc1.Cl [Example 17, hydrochloride] : 0.13

P: CCc1ccc(OCc2ccccc2C(=O)Nc2ccc3nc(C)cc(N)c3c2)cc1.Cl [Example 1, hydrochloride]
Q: Cc1cc(N)c2cc(NC(=O)c3ccccc3CCCCCCCOc3ccccc3)ccc2n1.Cl
Prompt line: Kindly compare P with Q and tell me which has the lower IC50 figure. Your answer should be the label attached to the chosen record.
Response line: P
(P: 0.12 µM, Q: 1.16 µM)

---

- Test system: allodynia model
- experimental-protocol: Allodynia test (intrathecal nociceptin, tactile stimulation)
- Type: in vivo, Mice
- condition-notes: Mus musculus; mice, oral, 60 min before nociceptin 50 pg i.t.; score at 20 min; read-out: Allodynia M.E.D. (minimum effective dose)
# minimal effective dose per record follows
// units = mg/kg; emit number, no label

Solved cases below.
Cc1cc(N)c2cc(NC(=O)c3ccccc3COc3ccc(C(F)(F)F)cc3)ccc2n1.Cl : 0.3
CCCc1ccc(OCc2ccccc2C(=O)Nc2ccc3nc(C)cc(N)c3c2)cc1.Cl : 0.3
Cc1ccc(OCc2ccccc2C(=O)Nc2ccc3nc(C)cc(N)c3c2)c(Cl)c1.Cl : 0.3

Prompt line: Quick one: minimal effective dose of Cc1cc(C)cc(OCc2ccccc2C(=O)Nc2ccc3nc(C)cc(N)c3c2)c1.Cl ?
Response line: 3

Prompt line: Quick one: minimal effective dose of Cc1cc(N)c2cc(NC(=O)c3ccccc3COc3ccc(Cl)cc3Cl)ccc2n1.Cl ?
Response line: 0.3

Prompt line: Quick one: minimal effective dose of Cc1cc(N)c2cc(NC(=O)c3ccccc3COc3ccc([N+](=O)[O-])cc3)ccc2n1 ?
Response line: 0.3

Prompt line: Quick one: minimal effective dose of Cc1cc(N)c2cc(NC(=O)c3ccccc3CCc3ccccc3)ccc2n1 ?
Response line: 30

---

pIC50: −log10 of the molar value.
pIC50, ORL-1 receptor (Homo sapiens), per-entry values.
quantity: pIC50

Cc1cc(N)c2cc(NC(=O)c3ccccc3COc3ccc(F)cc3)ccc2n1.Cl [Example 25, hydrochloride] : 6.82

P: Cc1cc(N)c2cc(NC(=O)c3ccccc3COc3cccc([N+](=O)[O-])c3)ccc2n1.Cl [Example 19, hydrochloride]
Q: Cc1cc(N)c2cc(NC(=O)c3ccccc3COc3ccc(Cl)c(C)c3)ccc2n1.Cl [Example 42, hydrochloride]
Prompt line: Kindly compare P with Q and tell me which has the lower pIC50 figure. Your answer should be the label attached to the chosen record.
Response line: P

---

Structures can show the parent of a compound that is named as a salt.
quantity: melting point (°C)

Cc1cc(N)c2cc(NC(=O)c3ccccc3COc3ccc(N(C)C)cc3)ccc2n1 (as salt: hydrochloride) : 233
Cc1ccc(OCc2ccccc2C(=O)Nc2ccc3nc(C)cc(N)c3c2)cc1.Cl : 255
COc1ccc(OCc2ccccc2C(=O)Nc2ccc3nc(C)cc(N)c3c2)cc1OC.Cl : 270
Cc1cc(N)c2cc(NC(=O)c3sccc3COc3ccc(Cl)cc3)ccc2n1.Cl : 219
Cc1cc(N)c2cc(NC(=O)c3ccccc3COc3ccc(CO)cc3)ccc2n1.Cl : 273
Cc1cc(N)c2cc(NC(=O)c3ccccc3CCCCc3ccccc3)ccc2n1.Cl : 233
Cl.Nc1ccc(NC(=O)c2ccccc2COc2ccccc2)cc1 : 241
Cl.Nc1c2c(nc3ccc(NC(=O)c4ccccc4COc4ccc(Cl)cc4)cc13)CCCC2 : 283
COc1cccc(OCc2ccccc2C(=O)Nc2ccc3nc(C)cc(N)c3c2)c1.Cl : 224
Cc1cc(N)c2cc(NC(=O)[C@@H]3CCCN3CCCOc3ccc(Cl)cc3)ccc2n1 : 211
COCc1ccccc1C(=O)Nc1ccc2nc(C)cc(N)c2c1.Cl : 244
Cc1ccc(OCc2ccccc2C(=O)Nc2ccc3nc(CO)cc(N)c3c2)cc1.Cl : 201
CCc1ccc(OCc2ccccc2C(=O)Nc2ccc3nc(C)cc(N)c3c2)c(Cl)c1.Cl : 245.9
Cc1cc(N)c2cc(NC(=O)c3ccccc3COc3ccccc3Cl)ccc2n1.Cl : 165
Cc1cc(N)c2cc(NC(=O)c3ccccc3COc3ccc(C#N)cc3)ccc2n1.Cl : 286
CC(=O)c1ccc(OCc2ccccc2C(=O)Nc2ccc3nc(C)cc(N)c3c2)cc1.Cl : 270
Cc1cc(N)c2cc(NC(=O)c3ccccc3CN(C(=O)OC(C)(C)C)c3ccc(Cl)cc3)ccc2n1.Cl : 208
Cl.Nc1cccc2ccc(NC(=O)c3ccccc3COc3ccccc3)cc12 : 237
Cc1cc(C)cc(OCc2ccccc2C(=O)Nc2ccc3nc(C)cc(N)c3c2)c1.Cl : 265
